Biological target: human cannabinoid CB2 receptor (Homo sapiens, UniProt P34972)
Construct: expressed in transfected cells; host or cells: Saccharomyces cerevisiae strain MMY23 (expresses a chimeric Gpa1/human Galpha-i3 G-protein alpha subunit)
Sequence (P34972 whole entry): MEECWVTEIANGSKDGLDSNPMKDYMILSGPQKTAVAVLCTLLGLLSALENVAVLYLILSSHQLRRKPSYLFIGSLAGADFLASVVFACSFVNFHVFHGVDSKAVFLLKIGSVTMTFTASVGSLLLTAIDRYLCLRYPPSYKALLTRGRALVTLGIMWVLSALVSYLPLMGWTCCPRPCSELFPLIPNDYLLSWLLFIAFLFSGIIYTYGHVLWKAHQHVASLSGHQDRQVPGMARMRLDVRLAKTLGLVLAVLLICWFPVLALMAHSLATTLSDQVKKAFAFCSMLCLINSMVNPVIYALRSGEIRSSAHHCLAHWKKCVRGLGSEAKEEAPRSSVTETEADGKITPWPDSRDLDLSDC
Assay: Cannabinoid CB2 receptor agonist activity, yeast reporter assay
Format: cell-based
Settings: read-out: efficacy (Emax) at the cloned human cannabinoid CB2 receptor
Method: Yeast (Saccharomyces cerevisiae) cells expressing the human cannabinoid CB2 receptor were generated by integration of an expression cassette into the ura3 chromosomal locus of yeast strain MMY23. […] Agonists were prepared as 10 mM stocks in DMSO. […] Fluorescence was plotted against compound concentration and iteratively curve fitted using a four parameter fit to generate a concentration effect value.
experimentalReadout: Emax

Quick one: give measured Emax for COc1cccc(CNC(=O)c2cnc(Nc3cccc(Cl)c3)nc2C(F)(F)F)c1 [Example 50]
< 50%

Quick one: give measured Emax for O=C(NCc1cccc(Cl)c1)c1cnc(Nc2cccc(Cl)c2)nc1C(F)(F)F [Example 52]
< 50%

Quick one: give measured Emax for O=C(NCc1cc(F)cc(F)c1)c1cnc(Nc2cccc(Cl)c2)nc1C(F)(F)F [Example 61]
< 50%

Quick one: give measured Emax for N#Cc1ccc(CNC(=O)c2cnc(Nc3c(Cl)cccc3Cl)nc2C(F)(F)F)cc1 [Example 71]
< 50%

Quick one: give measured Emax for O=C(NCc1ccccc1)c1cnc(Nc2ccc(Cl)cc2Cl)nc1C(F)(F)F [Example 8]
> 50%

Quick one: give measured Emax for O=C(NCc1ccc(F)cc1C(F)(F)F)c1cnc(Nc2cccc(Cl)c2)nc1C(F)(F)F [Example 74]
< 50%

Quick one: give measured Emax for O=C(O)Cc1cccc(Nc2ncc(C(=O)NCc3ccc(F)cc3)c(C(F)(F)F)n2)c1 [Example 112]
< 50%

Quick one: give measured Emax for N#Cc1ccc(CNC(=O)c2cnc(Nc3ccc(Cl)c(Cl)c3)nc2C(F)(F)F)cc1 [Example 68]
< 50%

Quick one: give measured Emax for CCN(Cc1ccccc1)C(=O)c1cnc(Nc2ccccc2Cl)nc1C(F)(F)F [Example 53]
< 50%

Quick one: give measured Emax for O=C(NCc1ccnc(F)c1)c1cnc(Nc2c(Cl)cccc2Cl)nc1C(F)(F)F [Example 93]
> 50%

Quick one: give measured Emax for O=C(NCc1ccccc1)c1cnc(Nc2ccc(Cl)c(Cl)c2)nc1C(F)(F)F [Example 9]
> 50%

Quick one: give measured Emax for O=C(NCc1ccccc1)c1cnc(Nc2cc(Cl)cc(Cl)c2)nc1C(F)(F)F [Example 11]
> 50%

Quick one: give measured Emax for CN(Cc1ccccc1)C(=O)c1cnc(Nc2ccc(C#N)cc2)nc1C(F)(F)F [Example 49]
< 50%

Quick one: give measured Emax for O=C(NCc1ccccc1)c1cnc(Nc2cccc(F)c2)nc1C(F)(F)F [Example 12]
> 50%

Quick one: give measured Emax for CN(Cc1ccccc1)C(=O)c1cnc(Nc2cc(Cl)cc(Cl)c2)nc1C(F)(F)F [Example 57]
< 50%

Quick one: give measured Emax for N#Cc1cccc(Nc2ncc(C(=O)NCc3ccccc3)c(C(F)(F)F)n2)c1 [Example 97]
> 50%

Quick one: give measured Emax for O=C(NCc1ccc(F)cc1)c1cnc(Nc2cc(Cl)cc(Cl)c2)nc1C(F)(F)F [Example 25]
> 50%

----------
Biological target: human cannabinoid CB2 receptor (Homo sapiens, UniProt P34972)
Construct: expressed in transfected cells; host or cells: Saccharomyces cerevisiae strain MMY23 (expresses a chimeric Gpa1/human Galpha-i3 G-protein alpha subunit)
Assay: Cannabinoid CB2 receptor agonist activity, yeast reporter assay
Type: cell-based
Settings: yeast (Saccharomyces cerevisiae) cells expressing human CB2; read-out: EC50 at the cloned human cannabinoid CB2 receptor
Method: Yeast (Saccharomyces cerevisiae) cells expressing the human cannabinoid CB2 receptor were generated by integration of an expression cassette into the ura3 chromosomal locus of yeast strain MMY23. […] Agonists were prepared as 10 mM stocks in DMSO. […] Fluorescence was plotted against compound concentration and iteratively curve fitted using a four parameter fit to generate a concentration effect value.
pEC50: −log10 of the molar value.
experimentalReadout: pEC50

Quick one: give measured pEC50 for O=C(NCc1ccc(F)cc1)c1cnc(Nc2cccc(Cl)c2)nc1C(F)(F)F [Example 5]
6.00 to 7.70

Quick one: give measured pEC50 for O=C(NCc1ccc(F)cc1)c1cnc(Nc2cccc(Br)c2)nc1C(F)(F)F [Example 24]
6.00 to 7.70
